# TESTED SYSTEM: T1, human EphA10 (Homo sapiens, UniProt Q5JZY3)
# T1 construct: a protein of the extracellular region of each human Eph receptor fused with the SEAP protein and the His tag; made in house; host or cells: Expi293F cells (culture supernatant)
# T1 sequence (Q5JZY3 34-565 limits assumed): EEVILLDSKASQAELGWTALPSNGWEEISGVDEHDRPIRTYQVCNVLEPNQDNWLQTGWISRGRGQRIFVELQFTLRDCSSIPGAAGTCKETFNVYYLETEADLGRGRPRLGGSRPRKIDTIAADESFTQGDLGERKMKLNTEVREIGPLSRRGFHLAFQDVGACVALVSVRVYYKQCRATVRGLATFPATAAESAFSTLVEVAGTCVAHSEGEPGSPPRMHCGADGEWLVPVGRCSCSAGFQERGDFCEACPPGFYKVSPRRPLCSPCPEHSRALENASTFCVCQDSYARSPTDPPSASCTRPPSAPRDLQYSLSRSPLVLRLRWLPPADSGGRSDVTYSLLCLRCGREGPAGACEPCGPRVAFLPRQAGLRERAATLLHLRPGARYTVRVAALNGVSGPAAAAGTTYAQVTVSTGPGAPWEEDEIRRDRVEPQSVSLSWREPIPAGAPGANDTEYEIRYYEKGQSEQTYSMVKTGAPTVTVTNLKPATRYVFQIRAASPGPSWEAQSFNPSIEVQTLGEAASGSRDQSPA
# ASSAY: Selectivity ELISA of humanized antibodies for human Eph receptor
# Assay type: binding
# ASSAY CONTEXT: coated protein 1 nM
MEASUREMENT TYPE: hEphA10-SEAP-: absorbance at 450 nm, percentage with respect to hEphA4-SEAP-His as 100% (%)
State just the number; it will be interpreted in %.

Tell me the measured hEphA10-SEAP-: absorbance at 450 nm, percentage with respect to hEphA4-SEAP-His as 100% of 159 (antibody, V domains shown, synthetic humanized antibody heavy chain variable region sequence; synthetic humanized antibody light chain variable region sequence) VH: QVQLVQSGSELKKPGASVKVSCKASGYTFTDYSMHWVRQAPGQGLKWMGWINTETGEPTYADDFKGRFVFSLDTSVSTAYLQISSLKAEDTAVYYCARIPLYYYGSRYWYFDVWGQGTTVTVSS VL: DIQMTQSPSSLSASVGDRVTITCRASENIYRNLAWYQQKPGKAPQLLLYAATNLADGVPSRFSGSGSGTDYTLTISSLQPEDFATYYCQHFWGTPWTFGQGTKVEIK , please.
5.3

Tell me the measured hEphA10-SEAP-: absorbance at 450 nm, percentage with respect to hEphA4-SEAP-His as 100% of 83 (antibody, V domains shown, constant regions without entry; synthetic humanized antibody light chain variable region sequence; synthetic humanized antibody heavy chain variable region sequence) VL: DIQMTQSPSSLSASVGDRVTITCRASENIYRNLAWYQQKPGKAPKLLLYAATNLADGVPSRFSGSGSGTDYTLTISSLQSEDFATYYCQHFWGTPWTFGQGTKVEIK VH: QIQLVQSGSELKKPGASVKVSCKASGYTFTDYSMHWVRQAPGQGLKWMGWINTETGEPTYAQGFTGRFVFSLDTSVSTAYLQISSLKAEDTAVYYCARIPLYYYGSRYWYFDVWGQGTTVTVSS , please.
5.6

Tell me the measured hEphA10-SEAP-: absorbance at 450 nm, percentage with respect to hEphA4-SEAP-His as 100% of 158 (antibody, V domains shown, synthetic humanized antibody heavy chain variable region sequence; synthetic humanized antibody light chain variable region sequence) VH: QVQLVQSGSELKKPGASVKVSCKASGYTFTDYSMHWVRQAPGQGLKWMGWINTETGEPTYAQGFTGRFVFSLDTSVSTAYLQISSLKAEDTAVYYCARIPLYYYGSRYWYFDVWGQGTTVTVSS VL: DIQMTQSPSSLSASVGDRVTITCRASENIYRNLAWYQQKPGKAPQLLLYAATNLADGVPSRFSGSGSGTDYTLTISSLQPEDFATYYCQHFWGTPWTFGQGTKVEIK , please.
6.4

Tell me the measured hEphA10-SEAP-: absorbance at 450 nm, percentage with respect to hEphA4-SEAP-His as 100% of 141 (antibody, V domains shown, synthetic humanized antibody heavy chain variable region sequence; synthetic humanized antibody light chain variable region sequence) VH: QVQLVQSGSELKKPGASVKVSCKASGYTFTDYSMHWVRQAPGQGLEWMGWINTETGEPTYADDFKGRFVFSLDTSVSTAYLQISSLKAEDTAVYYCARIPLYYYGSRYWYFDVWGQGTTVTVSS VL: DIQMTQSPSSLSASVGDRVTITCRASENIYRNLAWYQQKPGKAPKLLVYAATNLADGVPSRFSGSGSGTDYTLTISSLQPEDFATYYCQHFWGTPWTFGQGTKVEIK , please.
5.2

Tell me the measured hEphA10-SEAP-: absorbance at 450 nm, percentage with respect to hEphA4-SEAP-His as 100% of 155 (antibody, V domains shown, synthetic humanized antibody heavy chain variable region sequence; synthetic humanized antibody light chain variable region sequence) VH: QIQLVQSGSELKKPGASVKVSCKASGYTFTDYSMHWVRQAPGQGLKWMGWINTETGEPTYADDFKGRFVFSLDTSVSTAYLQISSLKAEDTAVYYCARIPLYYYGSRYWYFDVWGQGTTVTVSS VL: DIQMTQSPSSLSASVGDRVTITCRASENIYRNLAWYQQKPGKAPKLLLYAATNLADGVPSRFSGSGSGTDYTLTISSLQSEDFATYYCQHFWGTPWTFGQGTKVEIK , please.
5.4

Tell me the measured hEphA10-SEAP-: absorbance at 450 nm, percentage with respect to hEphA4-SEAP-His as 100% of 76 (antibody, V domains shown, synthetic humanized antibody heavy chain variable region sequence; synthetic humanized antibody light chain variable region sequence) VH: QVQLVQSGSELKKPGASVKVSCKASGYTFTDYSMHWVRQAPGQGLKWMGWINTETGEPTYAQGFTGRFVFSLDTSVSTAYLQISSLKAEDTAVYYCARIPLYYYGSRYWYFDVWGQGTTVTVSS VL: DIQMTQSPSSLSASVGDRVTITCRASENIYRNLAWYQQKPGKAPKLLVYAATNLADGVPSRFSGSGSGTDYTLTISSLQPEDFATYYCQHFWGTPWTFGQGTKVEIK , please.
4.7

Tell me the measured hEphA10-SEAP-: absorbance at 450 nm, percentage with respect to hEphA4-SEAP-His as 100% of 153 (antibody, V domains shown, synthetic humanized antibody heavy chain variable region sequence; synthetic humanized antibody light chain variable region sequence) VH: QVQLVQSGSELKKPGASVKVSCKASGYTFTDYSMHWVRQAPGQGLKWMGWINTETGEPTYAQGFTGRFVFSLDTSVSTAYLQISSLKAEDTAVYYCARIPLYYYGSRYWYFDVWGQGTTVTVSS VL: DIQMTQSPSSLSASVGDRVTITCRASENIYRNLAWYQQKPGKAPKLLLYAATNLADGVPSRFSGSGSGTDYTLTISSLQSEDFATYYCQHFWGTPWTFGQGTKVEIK , please.
6.0
